- Tested on: Rattus norvegicus
- method: AUC in Sprague-Dawley rat at 5 mg/kg, po by HPLC
- Type: ADME, organism-based, Plasma
- Set-up: dose 5 mg/kg, route oral
- measurement_context: in vivo
result_type: AUC (ng·h/mL)
Number only, in ng·h/mL; omit the unit.

Query block: Find AUC (Rattus norvegicus) for the entry CNC(=O)c1cccc(F)c1Nc1nc(Nc2ccc3c(c2)NC(=O)C(NC(=O)N2CCCC2)CC3(C)C)ncc1Cl (racemic; form 2)
Result block: 4660

Query block: Find AUC (Rattus norvegicus) for the entry CNC(=O)c1cccc(F)c1Nc1nc(Nc2ccc3c(c2)NC(=O)C(NC(C)=O)CC3(C)C)ncc1Cl.O=C(O)C(F)(F)F (racemic)
Result block: 48

Query block: Find AUC (Rattus norvegicus) for the entry CNC(=O)c1cccc(F)c1Nc1nc(Nc2ccc3c(c2)NC(=O)[C@@H](NC(=O)N2CCCC2)CC3(C)C)ncc1Cl
Result block: 5550

Query block: Find AUC (Rattus norvegicus) for the entry CNC(=O)c1cccc(F)c1Nc1nc(Nc2ccc3c(c2)NC(=O)C(NC(=O)COC)CC3(C)C)ncc1Cl.O=C(O)C(F)(F)F (racemic)
Result block: 497

Query block: Find AUC (Rattus norvegicus) for the entry CNC(=O)c1cccc(F)c1Nc1nc(Nc2ccc3c(c2)NC(=O)C(NC(=O)N2CCCC2)CC3(C)C)ncc1Cl.O=C(O)C(F)(F)F (racemic; form 1)
Result block: 2630

Query block: Find AUC (Rattus norvegicus) for the entry CNC(=O)c1cccc(F)c1Nc1nc(Nc2ccc3c(c2)NC(=O)C(NC(=O)C(F)(F)F)CC3(C)C)ncc1Cl.O=C(O)C(F)(F)F (racemic)
Result block: 606
